B1: HDV Ribozyme (parent)
chain: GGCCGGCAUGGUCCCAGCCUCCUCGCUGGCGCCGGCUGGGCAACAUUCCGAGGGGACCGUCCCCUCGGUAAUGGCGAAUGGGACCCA

variants of: B1; test: self-cleavage, relative activity (ratio to wild type); higher = more cleavage; co-transcriptional
Record form. Attribute: self-cleavage. Fill in for each entry.

U12C U65A | 0.489
U65G U72C | 0.415
C3A C48U | 0.635
C13A G40C | 0
G10C G52C | 0.78

// each listed variant needs a value for self-cleavage
1. U37A G40U
2. G11A A16G
3. C62U C86G
4. G74C C86U
5. A43C A78C
6. C33A A71G

## Result
[0.157, 0.323, 0.831, 0.189, 0.0723, 0.289]

// each listed variant needs a value for self-cleavage
1. C57A C84U
2. G29C C61G
3. C48A G80C

## Result
0.935
0.032
0.169

// each listed variant needs a value for self-cleavage
1. G6C C41U
2. C32G G59U
3. C18G G74A
4. C57A C63G

## Result
1. 0
2. 0.0519
3. 0.0449
4. 0.945
